B1: EHEE_rd3_0053 (parent)
chain: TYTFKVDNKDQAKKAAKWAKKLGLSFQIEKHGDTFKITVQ

variants of: B1; assay: folding stability dG (cDNA display proteolysis); higher = more stable; conditions: PBS, room temperature
Endpoint Name: folding stability dG (kcal/mol)
Record the value in kcal/mol, omitting the unit from your answer.

Retrieve folding stability dG measured for Y2R and print it.
1.97

Retrieve folding stability dG measured for F26M and print it.
2.05

Retrieve folding stability dG measured for D7I and print it.
2.27

Retrieve folding stability dG measured for K17H and print it.
2.21

Retrieve folding stability dG measured for Q27A and print it.
2.31

Retrieve folding stability dG measured for A15E and print it.
0.415

Retrieve folding stability dG measured for A15P and print it.
-0.232

Retrieve folding stability dG measured for H31R and print it.
2.08

Retrieve folding stability dG measured for W18F and print it.
1.56
